Cited source: patent US20210047304A1

- Target Or System: BRD4 (BDI_K57-E168) (Homo sapiens)
- Experiment Description: TR-FRET bromodomain binding assay, BRD4 BDI
- Protocol: A time-resolved fluorescence resonance energy transfer (TR-FRET) assay was used to determine the affinities of compounds of the Examples listed in Table 1 for each bromodomain of BRD4. […] An Alexa647-labeled BET-inhibitor was used as the fluorescent probe in the assay. […] After a one-hour equilibration at room temperature, TR-FRET ratios were determined using an Envision multilabel plate reader (Ex 340, Em 495/520). […]
Measurement Type: Ki (µM)

Below: 3 compounds and their reported Ki.
Structure Smiles String	Target Or System	Units Label	Ki
Cc1cc(F)cc(C)c1Oc1ccc(C(C)(C)O)cc1-c1cn(C)c(=O)cc1O[C@H]1CC[C@@H](NNC(=O)OC(C)(C)C)CC1	BRD4 (BDI_K57-E168) (Homo sapiens)	µM	1.79
Cc1cc(F)cc(C)c1Oc1ccc(C(C)(C)O)cc1-c1cn(C)c(=O)cc1O[C@H]1CC[C@H](N2CCCN(C)C2=O)CC1	BRD4 (BDI_K57-E168) (Homo sapiens)	µM	2.48
CCNC(=O)[C@H]1C[C@@H](Oc2cc(=O)n(C)cc2-c2cc(C(C)(C)O)ccc2Oc2c(C)cc(F)cc2C)C1	BRD4 (BDI_K57-E168) (Homo sapiens)	µM	1.58

[P] Cc1cc(F)cc(C)c1Oc1ccc(C(C)(C)O)cc1-c1cn(C)c(=O)cc1O[C@H]1CC[C@H](N2CC(C)(C)CC2=O)CC1
[Q] Cc1cc(F)cc(C)c1Oc1ccc(C(C)(C)O)cc1-c1cn(C)c(=O)cc1O[C@H]1CC[C@H](n2cccnc2=O)CC1
Hey, which is lower on measured Ki, P or Q ? In your reply, give the label of the chosen option.
P
(P: 0.891 µM, Q: 5.24 µM)

---

- Target Or System: BRD4 (BDI_K57-E168) (Homo sapiens, UniProt O60885)
- Experiment Description: TR-FRET bromodomain binding assay, BRD4 BDI
pKi: −log10 of the molar value.
Measurement Type: pKi

Structure Smiles String	pKi
CC(=O)NC[C@@H]1CC[C@H](Oc2cc(=O)n(C)cc2-c2cc(C(C)(C)O)ccc2Oc2c(C)cc(F)cc2C)[C@H]1C	5.54
CNC(=O)N[C@H]1CC[C@H](Oc2cc(=O)n(C)cc2-c2cc(C(C)(C)O)ccc2Oc2c(C)cc(F)cc2C)CC1	5.68
Cc1cc(F)cc(C)c1Oc1ccc(C(C)(C)O)cc1-c1cn(C)c(=O)cc1O[C@H]1CC[C@H](C#N)CC1	5.14

[A] Cc1cc(F)cc(C)c1Oc1ccc(C(C)(C)O)cc1-c1cn(C)c(=O)cc1O[C@H]1CC[C@H](C(=O)N2CCCC2)CC1
[B] Cc1cc(F)cc(C)c1Oc1ccc(C(C)(C)O)cc1-c1cn(C)c(=O)cc1O[C@H]1CC[C@H](NC(=O)C(C)(C)N)CC1
Hey, which is lower on measured pKi, A or B ? In your reply, give the label of the chosen option.
A
(A: 5.08, B: 6.19)

---

- Target Or System: BRD4 (BDI_K57-E168) (Homo sapiens, UniProt O60885)
- Experiment Description: TR-FRET bromodomain binding assay, BRD4 BDI
Measurement Type: Ki (µM)

Below: 2 compounds and their reported Ki.
Structure Smiles String	Ki [µM]
Cc1cc(F)cc(C)c1Oc1ccc(C(C)(C)O)cc1-c1cn(C)c(=O)cc1O[C@H]1CC[C@H](NC(=O)C(C)(C)C)CC1	1.66
Cc1cc(F)cc(C)c1Oc1ccc(C(C)(C)O)cc1-c1cn(C)c(=O)cc1O[C@H]1CC[C@H](N2CCCNC2=O)CC1	2.41

[a] Cc1cc(F)cc(C)c1Oc1ccc(C(C)(C)O)cc1-c1cn(C)c(=O)cc1O[C@H]1CC[C@H](N2C(=O)N[C@H](C(C)C)C2=O)CC1
[b] Cc1cc(F)cc(C)c1Oc1ccc(C(C)(C)O)cc1-c1cn(C)c(=O)cc1O[C@H]1CC[C@H](n2ncccc2=O)CC1
Hey, which is lower on measured Ki, a or b ? In your reply, give the label of the chosen option.
b

[a] Cc1cc(F)cc(C)c1Oc1ccc(C(C)(C)O)cc1-c1cn(C)c(=O)cc1O[C@H]1CC[C@H](CNC(=O)OC(C)(C)C)CC1
[b] COC(=O)N[C@H]1CC[C@H](Oc2cc(=O)n(C)cc2-c2cc(C(C)(C)O)cnc2Oc2c(C)cc(C(C)(C)O)cc2C)CC1
Which of the two gives a bigger number for Ki: a or b ? In your reply, give the label of the chosen option.
a
(a: 6.02 µM, b: 2.22 µM)
